# System: normal primary NK cells, pool 2 (3 donors) (IL-2 2.5 ng/mL)
# assay-method-text: relative IC50 (inflection point of fitted viability curve, relative to fitted max inhibition); higher = less sensitive
# test-context: 72 h
measured-metric: relative IC50
Dear colleague, please send the value followed by its unit.

Recorded results for 6 compounds are shown here.
Exam item: Need relative IC50 of `COc1cc(OC2CCN(C)CC2)ccc1Nc1ncc2c(n1)n(C1CCCC1)c(=O)n2C` , thanks.
Marked response: 2.41 µM

Exam item: Then this compound: `C=CCc1cccc(/C=N/NC(=O)CN2CCN(Cc3ccccc3)CC2)c1O`
Marked response: 2.05 µM

Exam item: Then this compound: `C=CCNC1=C2C[C@@H](C)C[C@H](OC)[C@H](O)[C@@H](C)/C=C(\C)[C@H](OC(N)=O)[C@@H](OC)/C=C\C=C(/C)C(=O)NC(=CC1=O)C2=O`
Marked response: 0.127 µM

Exam item: Then this compound: `Nc1ccn([C@@H]2O[C@H](CO)[C@@H](O)[C@@H]2O)c(=O)n1`
Marked response: 1.9 µM

Exam item: Then this compound: `C#Cc1cccc(Nc2ncnc3cc(OC)c(OCCCCCCC(=O)NO)cc23)c1`
Marked response: 0.347 µM

Exam item: Then this compound: `COc1ccc(C2=N[C@@H](c3ccc(Cl)cc3)[C@@H](c3ccc(Cl)cc3)N2C(=O)N2CCNC(=O)C2)c(OC(C)C)c1`
Marked response: 1.96 µM

List reported relative IC50 for each of these compounds:
1. Nc1nc(Cl)nc2c1ncn2[C@H]1C[C@H](O)[C@@H](CO)O1
2. O=C(/C=C/c1cccc(S(=O)(=O)Nc2ccccc2)c1)NO

Marked response:
1. 0.0161 µM
2. 0.143 µM

###

Task for the reader: assign each of the following molecules its reported percent inhibition of viability.
# Tested on: KHYG-1 (IL-2 2.5 ng/mL);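 further: normalised to DMSO-only wells as negative and benzethonium chloride as positive control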
# assay-method-text: percent inhibition of viability; higher = more inhibition
# test-context: 72 h; 100 nM
Dear colleague, please send the value followed by its unit.

Recorded results for 5 molecules are shown here.
Exam item: Need percent inhibition of viability of Cc1cc(C)c(/C=C2\C(=O)Nc3ccccc32)[nH]1 [Semaxanib] (max concentration tested 10000 nM) , thanks.
Marked response: 0.12%

Exam item: Then this molecule: Nc1ccccc1NC(=O)c1ccc(CNC(=O)OCc2cccnc2)cc1 [Entinostat] (max concentration tested 10000 nM)
Marked response: -4.46%

Exam item: Then this molecule: COCC(=O)NC/C=C/c1ccc2ncnc(Nc3ccc(Oc4ccc(C)nc4)c(C)c3)c2c1 (max concentration tested 10000 nM)
Marked response: -2.56%

Exam item: Then this molecule: CC(C)(C)c1cc(NC(=O)Nc2ccc(-c3cn4c(n3)sc3cc(OCCN5CCOCC5)ccc34)cc2)no1 [Quizartinib] (max concentration tested 1000 nM)
Marked response: 7.07%

Exam item: Then this molecule: CC[C@H](NC(=O)[C@H](C)NC)C(=O)N1C[C@@H](O)C[C@H]1Cc1c(-c2[nH]c3cc(F)ccc3c2C[C@@H]2C[C@H](O)CN2C(=O)[C@H](CC)NC(=O)[C@H](C)NC)[nH]c2cc(F)ccc12 [Birinapant] (max concentration tested 1000 nM)
Marked response: -1.77%

// moving on: another record for percent inhibition of viability
Exam item: Need percent inhibition of viability of COc1ccc(C2=N[C@@H](c3ccc(Cl)cc3)[C@@H](c3ccc(Cl)cc3)N2C(=O)N2CCNC(=O)C2)c(OC(C)C)c1 [Nutlin-3] (max concentration tested 10000 nM) , thanks.
Marked response: -3.85%
